Molecular target: G-protein coupled receptor 151 (Homo sapiens) (UniProt Q8TDV0)
Sequence (Q8TDV0 whole entry, looked up): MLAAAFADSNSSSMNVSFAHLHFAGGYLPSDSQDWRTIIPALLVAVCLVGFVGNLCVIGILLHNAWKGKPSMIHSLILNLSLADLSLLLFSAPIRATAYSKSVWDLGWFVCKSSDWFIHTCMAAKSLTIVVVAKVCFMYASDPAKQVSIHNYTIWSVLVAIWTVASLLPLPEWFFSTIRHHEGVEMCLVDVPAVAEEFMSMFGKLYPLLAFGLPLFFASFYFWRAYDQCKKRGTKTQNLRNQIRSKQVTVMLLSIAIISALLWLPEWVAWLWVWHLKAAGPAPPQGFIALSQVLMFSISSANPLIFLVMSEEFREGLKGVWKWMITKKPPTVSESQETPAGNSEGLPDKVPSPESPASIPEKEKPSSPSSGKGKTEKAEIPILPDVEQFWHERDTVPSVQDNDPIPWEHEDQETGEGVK
Assay: GPR151 activator potency, dose response, cell-based (AID 1508610)
Conditions: cell-based GPR151 activation reporter
Activity calls are given as the source filed them. No rule for the calls is given here.
quantity-kind: EC50

{"compound": "COC(=O)c1ccc(CN2CCN(Cc3ccc(OC)c(C)c3)C(CCO)C2)cc1 (stereo unspecified)", "result": "> 28 µM (inactive)"}
{"compound": "Cc1ccc(CCNS(=O)(=O)c2ccc3c(c2)OCCN3C)cc1", "result": "> 28 µM (inactive)"}
{"compound": "Cn1c(=O)c2c(nc(N3CCCCCC3)n2CCc2ccccc2)n(C)c1=O", "result": "> 27.9 µM (inactive)"}
{"compound": "CCOc1cc(OCC)cc(C(=O)Nc2ccc(Br)cn2)c1", "result": "> 28 µM (inactive)"}
{"compound": "C=CCN(c1ccc(C(=O)Nc2ccc(Cl)cc2)cc1)S(C)(=O)=O", "result": "> 28 µM (inactive)"}
{"compound": "C/C(=N\\NC(=S)NCc1ccco1)c1cccc([N+](=O)[O-])c1", "result": "> 28.2 µM (inactive)"}
{"compound": "COc1ccccc1CN[C@H]1C[C@H]2C(=O)N[C@@H](CC(C)C)C(=O)N2C1", "result": "> 28 µM (inactive)"}
{"compound": "COc1cc(N)c(Cl)cc1C(=O)OCCOc1ccc(Br)cc1", "result": "> 30.8 µM (inactive)"}

For this compound ( Cc1ccc2nc(-c3ccc(O)cc3)[nH]c2c1 ), measured EC50 is > 28 µM (inactive)

Lab note: measured EC50 of O=C(NCCO)c1ccc(-c2ccc(N3CCOCC3)nc2)s1 was > 27 µM (inactive)

---

Target: G-protein coupled receptor 151 (Homo sapiens)
Assay: GPR151 activator potency, dose response, cell-based (AID 1508610)
Conditions: cell-based GPR151 activation reporter
Active and inactive are the calls of the source. The rule behind the calls is not given here.
API: response.call in active, inactive

Take a look at these entries with their results.
{"compound": "CC(C)c1ccc(Cn2ccc3c4c(N)nc(NC5CC5)nc4ccc32)cc1", "assigned-category": "active"}
{"compound": "Cn1cc(CCC(=O)NC2CCN(Cc3ccccc3)CC2)c2ccccc21", "assigned-category": "inactive"}
{"compound": "CCOc1ccc(S(=O)(=O)N(CC(=O)NCCSc2ccccc2)c2ccccc2)cc1", "assigned-category": "inactive"}
{"compound": "N#CC1=C(N)Oc2n[nH]c(C34CC5CC(CC(C5)C3)C4)c2C1c1cccnc1 (stereo unspecified)", "assigned-category": "inactive"}
{"compound": "Oc1csc(Cc2nc(-c3ccccc3F)cs2)n1", "assigned-category": "inactive"}
{"compound": "O=C1CC(c2ccc(O)cc2)Oc2ccccc21 (stereo unspecified)", "assigned-category": "inactive"}

Enquiry: Test call, this compound: c1cncc(-c2noc(C34CC5CC(CC(C5)C3)C4)n2)c1
Return: inactive

Enquiry: Outcome? COc1ccc(C(=O)Nc2noc3ccccc23)cc1
Return: inactive

Enquiry: Please let me know the test result on file for O=C(c1ccc2c(c1)OCO2)N1CCN(c2ccc(Cl)cc2)CC1 .
Return: inactive

Enquiry: Fill in: this test's call for O=C1NC(=O)C(=Cc2cc(Br)ccc2OCc2ccccc2F)C(=O)N1 is ___
Return: inactive

Enquiry: Can you look up the reported call for COc1ccc(C(=O)Nc2cc(C(=O)NCc3ccc(F)cc3)ccc2N2CC3CC(C2)c2cccc(=O)n2C3)cc1 (stereo unspecified) for me?
Return: inactive

Enquiry: Would you mind telling me which call this test gave CCOc1ccccc1CN1CCN(Cc2cccc(OC)c2)CC1CCO (stereo unspecified) ?
Return: inactive
